experiment: Lipophilicity, logD of the compound at pH 7.4; assay type: physicochemical; settings: buffer
value-type: logD
Please give only the number in your answer, with no unit.

What does the record list as logD for CC(=O)Nc1cc2c(c(-c3cccc(C)c3C)n1)CCCN2 ?
2.5

====

system: U2OS; experiment: Induction of DNA damage in human U2OS cells assessed as increase in gammaH2AX foci formation at 20 uM incubated for 72 hrs by immunostaining based confocal microscopy; assay type: functional, cell-based
Calls of active or inactive are those of the source. The calls are words filed in the database; no cut-off is given here.

| smiles-representation | Activity |
| --- | --- |
| CC(=O)Nc1cc2c(c(-c3cccc(C)c3C)n1)CCCN2 | inactive |
| CNc1cc(N2CCCCC2)nc(N)n1 | inactive |
| Nc1nc2cccc(-c3cccc(Cl)c3Cl)n2n1 | inactive |

====

experiment: Dissociation constant, pKa of the compound; format: physicochemical
Kindly supply the reported pKa values for the records listed here.
No unit in the answer, only the number.

// pKa lookup, key: CC(=O)Nc1cc2c(c(-c3cccc(C)c3C)n1)CCCN2
7.5

Another compound to look at: CC(=O)Nc1cc2ncccc2c(-c2cccc(C)c2C)n1
3.5

====

Exercise: for every item that follows, state its recorded solubility kinetic.
assay: Kinetic solubility of compound at pH 2; conditions: buffer
Express it in µM; write the number only.

Name the reported solubility kinetic value associated with the compound CC(=O)Nc1cc2c(c(-c3cccc(C)c3C)n1)CCCN2
97

Please do the same for Nc1nc2cccc(-c3cccc(Cl)c3Cl)n2n1 as well.
93

====

tested on: U2OS; assay: Cytotoxicity against human U2OS cells assessed as reduction in cell viability incubated for 72 hrs by celltiter glo assay
value-type: pEC50
Scale note: pEC50 = -log10(concentration in M).

I am curious: what pEC50 value has been reported for C[C@H](Oc1cc(-c2cnn(C3CCNCC3)c2)cnc1N)c1c(Cl)ccc(F)c1Cl ?
5.17

Quick one: CC(=O)Nc1cc2c(c(-c3cccc(C)c3C)n1)CCCN2
5.09

Do the same for Nc1nc(NC2CC2)cc(-c2cccc(Cl)c2Cl)n1 please
5.25

What about this compound? Nc1nc2c(-c3cccc(Cl)c3Cl)cccc2[nH]1
4.84

Same question for CNc1cc(N(C)[C@@H](C)c2ccccc2)nc(N)n1 please.
4.60

And then Nc1nc2cccc(-c3cccc(Cl)c3Cl)n2n1 , what is it?
4.69

====

target: Voltage-gated inwardly rectifying potassium channel KCNH2 (Homo sapiens)
Sequence (Q12809 whole entry): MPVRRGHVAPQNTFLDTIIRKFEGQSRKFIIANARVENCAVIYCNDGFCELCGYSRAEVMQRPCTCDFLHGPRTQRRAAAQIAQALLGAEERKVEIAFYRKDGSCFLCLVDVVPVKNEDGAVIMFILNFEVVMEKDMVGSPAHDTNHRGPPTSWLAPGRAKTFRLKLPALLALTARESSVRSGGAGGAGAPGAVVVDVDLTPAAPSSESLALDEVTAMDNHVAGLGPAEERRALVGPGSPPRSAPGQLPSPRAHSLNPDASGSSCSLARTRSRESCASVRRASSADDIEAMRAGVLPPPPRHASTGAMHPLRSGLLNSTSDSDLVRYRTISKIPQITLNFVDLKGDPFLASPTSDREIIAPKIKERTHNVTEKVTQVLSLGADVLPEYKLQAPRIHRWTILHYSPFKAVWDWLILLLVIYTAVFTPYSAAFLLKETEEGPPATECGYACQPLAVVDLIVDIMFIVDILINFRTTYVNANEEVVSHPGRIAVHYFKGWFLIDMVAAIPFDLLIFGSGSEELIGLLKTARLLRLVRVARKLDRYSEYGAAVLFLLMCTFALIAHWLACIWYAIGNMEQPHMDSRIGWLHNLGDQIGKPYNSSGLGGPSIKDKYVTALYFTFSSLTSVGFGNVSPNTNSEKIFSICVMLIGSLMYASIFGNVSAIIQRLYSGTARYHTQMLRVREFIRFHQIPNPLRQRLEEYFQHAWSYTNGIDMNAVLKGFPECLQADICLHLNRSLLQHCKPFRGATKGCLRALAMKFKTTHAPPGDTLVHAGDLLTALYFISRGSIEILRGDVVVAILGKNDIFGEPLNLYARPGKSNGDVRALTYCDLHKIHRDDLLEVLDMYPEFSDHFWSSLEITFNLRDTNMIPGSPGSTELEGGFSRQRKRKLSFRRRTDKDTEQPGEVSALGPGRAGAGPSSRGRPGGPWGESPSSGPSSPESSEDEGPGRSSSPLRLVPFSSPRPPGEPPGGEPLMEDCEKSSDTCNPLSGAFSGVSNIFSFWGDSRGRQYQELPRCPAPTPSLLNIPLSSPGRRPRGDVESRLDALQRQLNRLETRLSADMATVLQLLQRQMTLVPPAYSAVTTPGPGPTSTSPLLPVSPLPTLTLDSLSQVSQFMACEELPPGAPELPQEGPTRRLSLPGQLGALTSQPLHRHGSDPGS
value-type: IC50

Hi! What's the reported IC50 for Nc1nc2cccc(-c3cccc(Cl)c3Cl)n2n1 on Voltage-gated inwardly rectifying potassium channel KCNH2 (Homo sapiens)?
> 25 µM

The measured values listed here are drawn from ChEMBL document CHEMBL4342490.
